B1: GA-binding protein alpha chain, residues 172 to 250; numbered along this chain, Q06546 (parent)
chain: GYRKEQERLGIPYDPIQWSTDQVLHWVVWVMKEFSMTDIDLTTLNISGRELCSLNQEDFFQRVPRGEILWSHLELLRKY

Variants of: B1
protocol-summary: abundance fitness (aPCA) (normalised: wild type 0, dead -1); higher = more abundant; growth selection in yeast, the domain comes from the species named
protocol-conditions: Homo sapiens
Cut-off -0.1 on abundance fitness, inclusive. At or above means Satisfied; below means Not satisfied.

Q: Decide: is the reported value of abundance fitness for F59E equal to or greater than -0.1?
A: Not satisfied

Q: Does R77E have a reported abundance fitness of at least -0.1?
A: Not satisfied

Q: Decide: abundance fitness of V30H >= -0.1?
A: Not satisfied

Q: Test whether the variant H72E records abundance fitness of -0.1 or higher.
A: Satisfied

Q: Determine whether measured abundance fitness meets or exceeds -0.1 for Q6L
A: Satisfied

Q: Reported abundance fitness at or above -0.1? P12M
A: Not satisfied

Q: # check: abundance fitness of N55S is greater than or equal to -0.1
A: Satisfied

Q: Does abundance fitness meet or surpass -0.1 for L73C ?
A: Not satisfied

Q: Is reported abundance fitness greater than or equal to -0.1 here: E7K
A: Not satisfied

Q: Is reported abundance fitness greater than or equal to -0.1 here: L51K
A: Not satisfied

Q: Given the entry K32V , answer whether its abundance fitness meets or surpasses -0.1.
A: Not satisfied

Q: Test whether the variant V63M records abundance fitness of -0.1 or higher.
A: Not satisfied

Q: abundance fitness >= -0.1 for G1T ?
A: Not satisfied

Q: Please indicate if the recorded abundance fitness for N55V meets or exceeds -0.1.
A: Not satisfied

Q: # check: abundance fitness of D21A is greater than or equal to -0.1
A: Satisfied

Q: Is abundance fitness for Q56R at or above -0.1?
A: Satisfied

Q: Kindly determine if abundance fitness recorded for Y13N is above or exactly -0.1.
A: Satisfied

Q: Is abundance fitness at least -0.1? Consider L44F
A: Not satisfied

Q: Could you please find out whether I11F has abundance fitness that meets -0.1 or exceeds it?
A: Not satisfied

Q: Does the reported abundance fitness for K32S fall at or above the -0.1 mark?
A: Satisfied

Q: Check if abundance fitness >= -0.1 (inclusive). Item: W29V
A: Not satisfied
